- target-desc: Human C3 (human, UniProt P01024 23-1663)
- Sequence (P01024 23-1663 limits assumed): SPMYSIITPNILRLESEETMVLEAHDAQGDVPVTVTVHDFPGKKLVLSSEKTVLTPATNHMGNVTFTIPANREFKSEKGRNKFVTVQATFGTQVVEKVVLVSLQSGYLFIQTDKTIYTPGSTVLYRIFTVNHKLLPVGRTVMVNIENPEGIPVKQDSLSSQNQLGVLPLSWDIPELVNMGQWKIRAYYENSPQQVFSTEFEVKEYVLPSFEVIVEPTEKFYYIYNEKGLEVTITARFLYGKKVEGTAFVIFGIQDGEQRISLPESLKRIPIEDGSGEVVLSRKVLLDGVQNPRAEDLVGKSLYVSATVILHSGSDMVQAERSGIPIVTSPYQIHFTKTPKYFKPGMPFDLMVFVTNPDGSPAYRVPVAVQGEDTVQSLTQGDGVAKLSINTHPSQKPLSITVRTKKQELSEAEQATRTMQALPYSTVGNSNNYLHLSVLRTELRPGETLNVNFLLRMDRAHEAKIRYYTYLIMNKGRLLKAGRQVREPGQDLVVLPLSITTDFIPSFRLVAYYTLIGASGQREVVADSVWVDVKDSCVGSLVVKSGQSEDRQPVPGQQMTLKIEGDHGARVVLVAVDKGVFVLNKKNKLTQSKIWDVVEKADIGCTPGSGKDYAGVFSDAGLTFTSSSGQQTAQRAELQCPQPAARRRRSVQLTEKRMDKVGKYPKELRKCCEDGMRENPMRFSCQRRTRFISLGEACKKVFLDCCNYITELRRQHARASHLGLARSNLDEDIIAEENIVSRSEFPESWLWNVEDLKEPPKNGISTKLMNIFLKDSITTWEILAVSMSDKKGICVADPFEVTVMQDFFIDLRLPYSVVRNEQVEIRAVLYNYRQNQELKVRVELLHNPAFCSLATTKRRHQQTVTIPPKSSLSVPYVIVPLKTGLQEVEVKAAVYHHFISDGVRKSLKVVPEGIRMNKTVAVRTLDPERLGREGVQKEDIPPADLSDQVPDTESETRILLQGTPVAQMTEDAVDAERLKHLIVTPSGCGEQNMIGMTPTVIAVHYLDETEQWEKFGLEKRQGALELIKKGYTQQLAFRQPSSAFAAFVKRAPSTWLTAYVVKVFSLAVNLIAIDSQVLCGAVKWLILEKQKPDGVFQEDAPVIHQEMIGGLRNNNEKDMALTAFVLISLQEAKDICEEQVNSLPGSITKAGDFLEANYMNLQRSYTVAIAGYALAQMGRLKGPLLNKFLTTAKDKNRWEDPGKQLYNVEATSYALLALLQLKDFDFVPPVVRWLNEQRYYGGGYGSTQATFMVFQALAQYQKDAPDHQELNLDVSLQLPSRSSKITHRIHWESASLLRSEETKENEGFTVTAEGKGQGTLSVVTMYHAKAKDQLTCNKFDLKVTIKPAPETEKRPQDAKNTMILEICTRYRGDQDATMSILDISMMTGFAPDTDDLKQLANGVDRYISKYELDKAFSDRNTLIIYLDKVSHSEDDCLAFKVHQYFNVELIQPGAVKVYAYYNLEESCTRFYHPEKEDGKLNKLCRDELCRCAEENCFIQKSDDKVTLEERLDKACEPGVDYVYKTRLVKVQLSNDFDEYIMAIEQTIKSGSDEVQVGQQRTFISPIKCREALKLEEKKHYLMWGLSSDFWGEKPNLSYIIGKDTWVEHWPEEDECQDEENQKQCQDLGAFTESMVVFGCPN
- assay-protocol: cell-based or functional assay
Starred links: 1 amine or outer side, 2 acyl side, 3 side chain; linkers in the order of their positions; H or OH if unused. Positions of bridges follow the written chain, without caps; N, C: chain ends. Non-standard residues stand in square brackets, D forms with d. Groups on a side chain read outwards from the residue. *: point of attachment. Trp(1-Me) = Cn1cc(C[C@H](N)C(=O)O)c2ccccc21; C18 diacid = O=C(O)CCCCCCCCCCCCCCCCC(=O)*; γGlu = O=C(O)[C@H](CCC(=O)[*:2])N[*:1]; hCys = N[C@@H](CCS)C(=O)O; AEEA = NCCOCCOCC(=O)O; Sar = CNCC(=O)O
binders and their reported IC50[nM], inhibition of hemolysis

binder	IC50[nM], inhibition of hemolysis
Ac-SEFCI[Trp(1-Me)]QDWGEHRCTEGE[8‑aminooctanoyl]EK([γGlu-Gly-γGlu-C18 diacid])-NH2 (disulfide 4-14) [Compound 137]	< 100 nM

Problem: Give a short answer stating reported IC50[nM], inhibition of hemolysis for EGSAYAIWQDWGEHRCGEKEK (not fully specified; N-acetyl; C-terminal amide; delta-cystathionine (Ctt2) thioether bridge A6-hCys16 (hCys written C); W8 is 1-Me-Trp; G17 is Sar; E20 is γGlu; K21 side chain bears [17-carboxy-heptadecanoyl][γGlu][Peg3][Peg3]) [Compound 159] .
Result: < 100 nM

Problem: Give a short answer stating reported IC50[nM], inhibition of hemolysis for Ac-SEFAI[Trp(1-Me)]QDW[Sar]EHR[hCys][Sar]E[AEEA][AEEA]K([γGlu-Gly-γGlu-C18 diacid])-OH (thioether 4-14) [Compound 162] .
Result: < 100 nM
